- measurement target: PAR2 (HT-29 cells, SLIGKV activation) (Homo sapiens)
- Construct: host or cells: HT-29 cells
- Sequence (P55085 26-397): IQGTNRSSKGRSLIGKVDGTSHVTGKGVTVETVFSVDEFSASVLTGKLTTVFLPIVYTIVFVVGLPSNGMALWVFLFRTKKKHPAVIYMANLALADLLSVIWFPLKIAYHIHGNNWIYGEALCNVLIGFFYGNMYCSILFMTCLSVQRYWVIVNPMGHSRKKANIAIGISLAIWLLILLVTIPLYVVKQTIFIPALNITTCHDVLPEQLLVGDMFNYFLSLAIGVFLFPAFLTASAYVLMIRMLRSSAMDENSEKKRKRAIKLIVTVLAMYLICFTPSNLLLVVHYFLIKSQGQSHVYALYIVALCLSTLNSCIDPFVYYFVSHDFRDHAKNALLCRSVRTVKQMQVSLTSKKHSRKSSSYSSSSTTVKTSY
- procedure summary: Ca FLIPR TETRA assay, ANTAGONIST mode, stimulation with 8 μM SLIGKV
- Format: cell-based
- test settings: HT-29 cells, antagonist mode, stimulation with 8 μM SLIGKV
Please go through the items and note down their IC50.
Give a bare numeral; the unit nM is implied.

## Input Output measured IC50 for this item: COC(=O)C1(C(=O)N2CCN(C(=O)c3cn4nc(-c5ccc(F)cc5)cc(C(C)(C)C)c4n3)C(C)(C)C2)CC1
## Output 4.3

## Input Output measured IC50 for this item: CC(C)(C)C1CC(c2ccc(F)cc2)=Nn2cc(C(=O)N3CCNC(=O)C3(C)C)nc21 (stereo not shown)
## Output 56

## Input Output measured IC50 for this item: Cc1ccc(-c2cc(C(C)C)c3nc(C(=O)N4CCN(C(=O)c5nc[nH]n5)CC4(C)C)cn3n2)cc1F
## Output 5

## Input Output measured IC50 for this item: Cc1n[nH]c(C(=O)N2CCN(C(=O)c3cn4nc(-c5ccc(F)cc5)cc(C(C)C)c4n3)CC2)n1
## Output 720

---

- measurement target: PAR2 (HT-29 cells, trypsin activation) (Homo sapiens, UniProt P55085)
- Construct: host or cells: HT-29 cells
- Sequence (P55085 26-397): as above
- procedure summary: Ca FLIPR TETRA assay, ANTAGONIST mode, stimulation with 3.1 U/mL trypsin
- Format: cell-based
- test settings: HT-29 cells, stimulation with 3.1 U/mL trypsin
- Procedure: Example 60: Protocol for Testing PAR2 Compounds in ANTAGONIST Mode Using the Ca FLIPR^TETRA Assay (384 Well) […] A first read was performed to determine whether the test compounds on their own can activate Ca2+ responses. The cells were incubated with the compounds for 30 min at r. t. and then read in ANTAGONIST mode in the same plate by stimulating with 6.2 uL of a fixed concentration of the activator: final concentrations: 8 μM SLIGKV, 1 U/mL Thrombin, 3.1 U/mL trypsin, or 0.6 μM UTP.
parameter measured: IC50 (nM)
Give a bare numeral; the unit nM is implied.

## Input Report value only: IC50, PAR2 (HT-29 cells, trypsin activation) (Homo sapiens, UniProt P55085), O=C(c1cn2nc(-c3ccc(F)cc3)cc(C(F)(F)F)c2n1)N1CCCCC1c1ccccn1 (centres unmarked)
## Output 1700

## Input Report value only: IC50, PAR2 (HT-29 cells, trypsin activation) (Homo sapiens, UniProt P55085), Cc1cc(-c2ccc(F)cc2)nn2cc(C(=O)N3CCN(C(=O)C4(O)CCC4)[C@@H](C)C3)nc12
## Output 17000

## Input Report value only: IC50, PAR2 (HT-29 cells, trypsin activation) (Homo sapiens, UniProt P55085), CC(C)c1cc(-c2ccc(F)cc2)nn2cc(C(=O)N3CCN(C(=O)CC4CCCCC4)[C@@H](C)C3)nc12
## Output 2

## Input Report value only: IC50, PAR2 (HT-29 cells, trypsin activation) (Homo sapiens, UniProt P55085), CCOC1CCN(C(=O)c2cn3nc(-c4ccc(F)cc4)cc(C)c3n2)CC1
## Output 29000

## Input Report value only: IC50, PAR2 (HT-29 cells, trypsin activation) (Homo sapiens, UniProt P55085), CC(C)(O)C1CCCN(C(=O)c2cn3nc(-c4ccc(F)cc4)cc(C(F)(F)F)c3n2)C1 (centres unmarked)
## Output 9300

## Input Report value only: IC50, PAR2 (HT-29 cells, trypsin activation) (Homo sapiens, UniProt P55085), CC(C)(O)C(=O)N1CCN(C(=O)c2cn3nc(-c4ccc(F)cc4)cc(C4(C)CC4)c3n2)C(C)(C)C1
## Output 21

## Input Report value only: IC50, PAR2 (HT-29 cells, trypsin activation) (Homo sapiens, UniProt P55085), CC(C)c1cc(-c2ccc(F)cc2)nn2cc(C(=O)N3CCN(C(=O)OC(C)(C)C)[C@@H](C)C3)nc12
## Output 150

## Input Report value only: IC50, PAR2 (HT-29 cells, trypsin activation) (Homo sapiens, UniProt P55085), CC(C)c1cc(-c2ccc(F)cc2)nn2cc(C(=O)N3CCN(C(=O)C4(O)CCOCC4)CC3(C)C)nc12
## Output 250

Every entry's value here was drawn from patent US20190119282A1.
